- tested-system: T1, Anti-CD28 Fab (SEQ ID NOs: 696, 697)
- T1 construct: Biotinylated and captured on neutravidin coated plates in the phage ELISA
- T1 sequence (VH, as listed by the source, chain 1 of 2): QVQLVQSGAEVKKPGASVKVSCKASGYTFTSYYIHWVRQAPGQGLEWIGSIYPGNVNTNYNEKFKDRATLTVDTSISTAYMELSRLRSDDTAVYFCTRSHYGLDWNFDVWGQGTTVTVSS
- T1 sequence (VL, as listed by the source, chain 2 of 2): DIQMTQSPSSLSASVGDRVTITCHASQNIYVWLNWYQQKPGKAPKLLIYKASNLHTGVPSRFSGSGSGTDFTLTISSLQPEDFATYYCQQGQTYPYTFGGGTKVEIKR
- method: phage binding ELISA on captured anti-CD28 Fab; competitor: CD28 antigen pre-incubated in the well;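 also: clonal phage supernatants added briefly to wells preblocked with or without CD28, bound phage detected through an HRP-linked anti-M13 antibody, wells with blocking buffer alone as comparison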
Below is a list of entries, each paired with its recorded Anti-CD28 Fab signal in the presence of CD28 (phage binding ELISA) value.
Write the value as a bare number.

Here's what some known entries look like.
binder	endpoint-value
ICAAGFIWSWPACF (tested as crude phage supernatant) [Phage-1548]	0.08
TCAAGAHYLWPHCL (tested as crude phage supernatant) [Phage-1551]	0.12
PCAAGAMWAWPYCL (tested as crude phage supernatant) [Phage-1552]	0.05

As a next step, examine the binder that follows.
Need Anti-CD28 Fab signal in the presence of CD28 (phage binding ELISA), item TCAAGATYTWPTCF (tested as crude phage supernatant) [Phage-1555]
0.05
